Quick reference for PBM binding z-score among some sequences
Test system: PPARg:RXRa 30nM:10nM, anti-RXR (NR concentration 30 nM, RXRa partner concentration 10 nM)
Test: PBM binding z-score (relative to random genomic background probes); higher = stronger binding; sequences stand for … in GC…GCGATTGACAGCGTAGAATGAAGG
Lab note: record just the number, no unit beside it.

Prompt: // query PBM binding z-score value for entry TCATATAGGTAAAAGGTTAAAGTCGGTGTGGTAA
Completion: 9.29

Prompt: Also CGTCCAAGGTCATAGGAGGTCTGTGAAGACAGAT ?
Completion: 1.89

Prompt: Also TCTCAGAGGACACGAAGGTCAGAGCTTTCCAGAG ?
Completion: 3.02
